Organism: Bos taurus
Experiment: Inhibition of bovine brain tubulin polymerization at 20 uM after 30 mins by spectrophotometry
assay-readout: inhibition

Example cases with answers are listed next.
| compound | inhibition |
| --- | --- |
| COc1cc(C(C)c2ccc3c(c2)c(C)cn3C)cc(OC)c1OC (stereo not given) | 90% |
| COc1cc(C(C)c2ccc3[nH]ccc3c2)cc(OC)c1OC (stereo not given) | 5% |
| COc1ccc(C(=CC=O)c2ccc3c(c2)c(C=O)cn3C)c(OC)c1OC | 98% |
| C=C(c1ccc2c(c1)c(C=NO)cn2C)c1ccc(OC)c(OC)c1OC | 95% |

What value of inhibition has been reported for the following compound? COc1ccc(C(=O)c2ccc3c(ccn3C)c2)c(OC)c1OC
100%

What value of inhibition has been reported for the following compound? C=C(c1ccc2c(c1)c(CO)cn2C)c1ccc(OC)c(OC)c1OC
32%

---

Assay: Inhibition of bovine brain tubulin polymerization after 30 mins by spectrophotometry
Parameters: species or system Bos taurus
Below, each entry is listed alongside its reported pIC50.
The meaning of pIC50 here: minus log10 of the concentration in molar units.

| compound | pIC50 |
| --- | --- |
| C=C(c1ccc2c(c1)c(C=NO)cn2C)c1ccc(OC)c(OC)c1OC | 5.40 |
| COc1ccc(C(=CC=O)c2ccc3c(c2)c(C=O)cn3C)c(OC)c1OC | 5.23 |
| COc1cc(C(=CC#N)c2ccc3c(c2)c(C#N)cn3C)cc(OC)c1OC | 5.33 |
| COc1cc(C(C)c2ccc3c(ccn3C)c2)cc(OC)c1OC (configuration not stated) | 6.00 |
| C=C(c1cc(OC)c(OC)c(OC)c1)c1ccc2c(ccn2C)c1 | 6.15 |

What value of pIC50 has been reported for the following compound? COc1ccc(C(=O)c2ccc3c(ccn3C)c2)c(OC)c1OC
6.40

What value of pIC50 has been reported for the following compound? COc1cc(C(=O)c2ccc3c(ccn3C)c2)cc(OC)c1OC
5.10

What value of pIC50 has been reported for the following compound? C=C(c1ccc2c(c1)c(C=O)cn2C)c1ccc(OC)c(OC)c1OC
5.40

What value of pIC50 has been reported for the following compound? C=C(c1cc(OC)c(OC)c(OC)c1)c1ccc2c(c1)c(C(=O)O)cn2C
5.30

What value of pIC50 has been reported for the following compound? C=C(c1cc(OC)c(OC)c(OC)c1)c1ccc2c(c1)c(C=O)cn2C
6.05

What value of pIC50 has been reported for the following compound? C=C(c1ccc2c(c1)c(C#N)cn2C)c1ccc(OC)c(OC)c1OC
5.66

What value of pIC50 has been reported for the following compound? C=C(c1ccc2c(ccn2C)c1)c1ccc(OC)c(OC)c1OC
5.33

What value of pIC50 has been reported for the following compound? C=C(c1cc(OC)c(OC)c(OC)c1)c1ccc2c(c1)c(C=NO)cn2C
5.59

What value of pIC50 has been reported for the following compound? COc1cc(C(=O)c2ccc3c(c2)c(C=O)cn3C)cc(OC)c1OC
4.77

What value of pIC50 has been reported for the following compound? COc1cc(C(=CC=O)c2ccc3c(c2)c(C=O)cn3C)cc(OC)c1OC
5.15

What value of pIC50 has been reported for the following compound? C=C(c1cc(OC)c(OC)c(OC)c1)c1ccc2c(c1)c(C(N)=O)cn2C
6.05

What value of pIC50 has been reported for the following compound? C=C(c1cc(OC)c(OC)c(OC)c1)c1ccc2c(c1)c(C#N)cn2C
5.92

---

Species on record: Bos taurus
Experiment: Inhibition of bovine brain tubulin polymerization at 20 uM after 30 mins by spectrophotometry
Below, each entry is listed alongside its reported inhibition.
I only need the number, in %, no unit after it.

Example cases with answers are listed next.
| compound | result-unit | inhibition |
| --- | --- | --- |
| C=C(c1cc(OC)c(OC)c(OC)c1)c1ccc2c(ccn2C)c1 | % | 96 |
| C=C(c1ccc2c(ccn2C)c1)c1ccc(OC)c(OC)c1OC | % | 97 |
| COc1cc(C(C)c2ccc3c(ccn3C)c2)cc(OC)c1OC (centres undefined) | % | 100 |
| COc1ccc(C(=O)c2ccc3c(c2)c(C#N)cn3C)c(OC)c1OC | % | 40 |

What value of inhibition has been reported for the following compound? C=C(c1cc(OC)c(OC)c(OC)c1)c1ccc2c(c1)c(C#N)cn2C
93

What value of inhibition has been reported for the following compound? C=C(c1ccc2c(c1)c(C#N)cn2C)c1ccc(OC)c(OC)c1OC
89

What value of inhibition has been reported for the following compound? COc1cc(C(=CC#N)c2ccc3c(c2)c(C#N)cn3C)cc(OC)c1OC
90

What value of inhibition has been reported for the following compound? COc1ccc(C(C)c2ccc3c(c2)c(C=NN)cn3C)c(OC)c1OC (centres undefined)
0

What value of inhibition has been reported for the following compound? COc1cc(C(=O)c2ccc3c(c2)c(C(=O)O)cn3C)cc(OC)c1OC
2

What value of inhibition has been reported for the following compound? C=C(c1cc(OC)c(OC)c(OC)c1)c1ccc2c(c1)c(CO)cn2C
32

What value of inhibition has been reported for the following compound? C=C(c1cc(OC)c(OC)c(OC)c1)c1ccc2c(c1)c(C(N)=O)cn2C
93

What value of inhibition has been reported for the following compound? C=C(c1cc(OC)c(OC)c(OC)c1)c1ccc2c(c1)c(C=NO)cn2C
93

What value of inhibition has been reported for the following compound? C=C(c1cc(OC)c(OC)c(OC)c1)c1ccc2c(c1)c(C=O)cn2C
100

What value of inhibition has been reported for the following compound? COc1cc(C(C)c2ccc3[nH]cc(C=O)c3c2)cc(OC)c1OC (centres undefined)
0

---

Species: Bos taurus
Assay: Inhibition of bovine brain tubulin polymerization at 20 uM after 30 mins by spectrophotometry
assay-readout: inhibition (%)
I only need the number, in %, no unit after it.

Example cases with answers are listed next.
| molecule | inhibition / % |
| --- | --- |
| C=C(c1cc(OC)c(OC)c(OC)c1)c1ccc2[nH]ccc2c1 | 36 |
| COc1cc(C(=O)c2ccc3c(c2)c(C=O)cn3C)cc(OC)c1OC | 61 |
| C=C(c1cc(OC)c(OC)c(OC)c1)c1ccc2c(c1)c(C(=O)O)cn2C | 91 |
| COc1ccc(C(=O)c2ccc3c(c2)c(C=O)cn3C)c(OC)c1OC | 73 |
| C=C(c1ccc2c(c1)c(C=O)cn2C)c1ccc(OC)c(OC)c1OC | 98 |
| COc1cc(/C(=C\C=O)c2ccc3c(c2)c(C=O)cn3C)cc(OC)c1OC | 96 |
| COc1cc(C(=O)c2ccc3c(ccn3C)c2)cc(OC)c1OC | 98 |
| COc1cc(C(O)c2nc3ccc(Br)cc3n2C)cc(OC)c1OC (stereo not given) | 22 |
| COc1ccc(C(C)c2ccc3c(ccn3C)c2)c(OC)c1OC (stereo not given) | 87 |
| C=C(c1cc(OC)c(OC)c(OC)c1)c1ccc2c(c1)c(C=NN)cn2C | 12 |

What value of inhibition has been reported for the following molecule? COc1cc(C(=CC=O)c2ccc3c(c2)c(C=O)cn3C)cc(OC)c1OC
88

What value of inhibition has been reported for the following molecule? COc1cc(C(O)c2nc3cc(Br)ccc3n2C)cc(OC)c1OC (stereo not given)
2

What value of inhibition has been reported for the following molecule? COc1cc(C(=O)c2nc3ccc(Br)cc3n2C)cc(OC)c1OC
37

What value of inhibition has been reported for the following molecule? COc1cc(C(=O)c2nc3cc(Br)ccc3n2C)cc(OC)c1OC
37

What value of inhibition has been reported for the following molecule? COc1cc(C(=O)c2ccc3ocnc3c2)cc(OC)c1OC
0
